system: Cryptococcus neoformans; test: Antifungal activity against Cryptococcus neoformans ATCC 90113 after 70 to 74 hrs by CLSI method; format: functional, organism-based; details: Cryptococcus neoformans, ATCC 90113
Peptide text beside a SMILES is read from it. * marks the point of attachment. Boc = CC(C)(C)OC(=O)*; NHBn = c1ccc(CN*)cc1
property_label: MIC (µg/mL)

Solved cases (5 shown):
compound	property_label	data_value
COc1ccc(-c2nc(C[C@H](NC(=O)[C@@H](N)CCCNC(=N)N)C(=O)N[C@@H](CCCNC(=N)N)C(=O)NCc3ccccc3)c[nH]2)cc1	MIC	0.63
CC(C)(C)OC(=O)N[C@@H](CCCNC(=N)N)C(=O)N[C@@H](Cc1c[nH]c(-c2ccc(-c3ccccc3)cc2)n1)C(=O)N[C@@H](CCCNC(=N)N)C(=O)NCc1ccccc1	MIC	0.31
CC(C)(C)OC(=O)N[C@@H](CCCNC(=N)N)C(=O)N[C@@H](Cc1c[nH]cn1)C(=O)N[C@@H](CCCNC(=N)N)C(=O)NCc1ccccc1 (Boc-Arg-His-Arg-NHBn)	MIC	10
COC(=O)[C@H](CCCNC(=N)N)NC(=O)[C@H](Cc1c[nH]c(-c2ccc(OC)cc2)n1)NC(=O)[C@@H](N)CCCNC(=N)N	MIC	5
COC(=O)[C@H](CCCNC(=N)N)NC(=O)[C@H](Cc1c[nH]c(-c2ccc(-c3ccccc3)cc2)n1)NC(=O)[C@H](CCCNC(=N)N)NC(=O)OC(C)(C)C	MIC	1.25

A. Cc1ccc(-c2nc(C[C@H](NC(=O)[C@H](CCCNC(=N)N)NC(=O)OC(C)(C)C)C(=O)N[C@@H](CCCNC(=N)N)C(=O)NCc3ccccc3)c[nH]2)cc1
B. COC(=O)[C@H](CCCNC(=N)N)NC(=O)[C@H](Cc1c[nH]c(-c2ccc(OC)cc2)n1)NC(=O)[C@H](CCCNC(=N)N)NC(=O)OC(C)(C)C
Lab note: check whether A or B has the lower measured MIC. Respond with the label that goes with your answer.
A

I. N=C(N)NCCC[C@H](NC(=O)[C@H](Cc1c[nH]c(-c2ccccc2)n1)NC(=O)[C@@H](N)CCCNC(=N)N)C(=O)NCc1ccccc1
II. COc1ccc(-c2nc(C[C@H](NC(=O)[C@H](CCCNC(=N)N)NC(=O)OC(C)(C)C)C(=O)N[C@@H](CCCNC(=N)N)C(=O)NCc3ccccc3)c[nH]2)cc1
Lab note: check whether I or II has the lower measured MIC. Respond with the label that goes with your answer.
I

----------
# Lookup of reported selectivity ratio keyed by entry
assay: Selectivity index, ratio of cytotoxicity for human SK-MEL cells to IC50 for Cryptococcus neoformans ATCC 90113; format: toxicity, cell-based; settings: read-out: Selectivity Index

Bench note: what selectivity ratio did `COC(=O)[C@H](CCCNC(=N)N)NC(=O)[C@H](Cc1c[nH]c(-c2ccc(OC)cc2)n1)NC(=O)[C@H](CCCNC(=N)N)NC(=O)OC(C)(C)C` show?
> 2.5

----------
system: Candida albicans; assay: Antifungal activity against Candida albicans by CLSI method; format: functional, organism-based
Active and inactive are the calls of the source. The calls are words filed in the database; no cut-off is given here. Peptide text beside a SMILES is read from it. * marks the point of attachment. NHBn = c1ccc(CN*)cc1
property_label: Activity

Solved cases (5 shown):
molecule	property_label	data_value
COC(=O)[C@H](CCCNC(=N)N)NC(=O)[C@H](Cc1c[nH]c(-c2ccc(-c3ccccc3)cc2)n1)NC(=O)[C@H](CCCNC(=N)N)NC(=O)OC(C)(C)C	Activity	inactive
COC(=O)[C@H](CCCNC(=N)N)NC(=O)[C@H](Cc1c[nH]c(-c2ccc(C)cc2)n1)NC(=O)[C@H](CCCNC(=N)N)NC(=O)OC(C)(C)C	Activity	inactive
N=C(N)NCCC[C@H](NC(=O)[C@H](Cc1c[nH]cn1)NC(=O)[C@@H](N)CCCNC(=N)N)C(=O)NCc1ccccc1 (H-Arg-His-Arg-NHBn)	Activity	inactive
CC(C)(C)OC(=O)N[C@@H](CCCNC(=N)N)C(=O)N[C@@H](Cc1c[nH]c(-c2ccc(C(C)(C)C)cc2)n1)C(=O)N[C@@H](CCCNC(=N)N)C(=O)NCc1ccccc1	Activity	inactive
N=C(N)NCCC[C@H](NC(=O)[C@H](Cc1c[nH]c(-c2ccccc2)n1)NC(=O)[C@@H](N)CCCNC(=N)N)C(=O)NCc1ccccc1	Activity	inactive

Alright, here's another molecule for you.
What is its Activity for Candida albicans? Entry: `COC(=O)[C@H](CCCNC(=N)N)NC(=O)[C@H](Cc1c[nH]c(-c2ccc(OC)cc2)n1)NC(=O)[C@H](CCCNC(=N)N)NC(=O)OC(C)(C)C`
inactive
